Taken from the Human Domainome abundance scans (Beltran et al. 2025).

B1: Far upstream element-binding protein 3, residues 75 to 150; numbered along this chain, Q96I24 (parent)
chain: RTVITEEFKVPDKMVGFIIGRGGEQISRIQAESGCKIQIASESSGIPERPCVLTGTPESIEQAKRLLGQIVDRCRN

# Variants of: B1
# experiment.description: abundance fitness (aPCA) (normalised: wild type 0, dead -1); higher = more abundant; growth selection in yeast, the domain comes from the species named
# measurement.setup: Homo sapiens
assay.metric: abundance fitness
Give bare numbers.

Recorded abundance fitness, per entry:
>>> recorded_result("I26Q")
-0.193
>>> recorded_result("R1T")
0.028
>>> recorded_result("I60C")
-0.088
>>> recorded_result("C74Q")
-0.002

Lab note: each variant below needs its abundance fitness filled in.
1. F8T
2. S59T
3. P47V
4. G23E
5. K36D
6. S33D
7. A63Y
8. G22R

1: -0.042; 2: -0.119; 3: -0.041; 4: -0.037; 5: 0.001; 6: -0.648; 7: -1.59; 8: -0.012

Required: abundance fitness, one value per variant below.
1. M14K
2. T5S
3. T56A
4. T56N

1: -0.345; 2: -0.082; 3: -0.086; 4: -0.105

Could you tell me abundance fitness for each of these variants? They are listed below.
1. T5F
2. A31H
3. R1S

[-0.201, 0.057, -0.042]

Go through the items and report each one's abundance fitness.
1. G68R
2. Q69R
3. A63E
4. C51D
5. C74H

1: -0.036; 2: 0.005; 3: -0.831; 4: -0.633; 5: 0.031

For each of the variants below, state abundance fitness.
1. N76E
2. K64D
3. L53E
4. G20L
5. E42G
6. E58T

-0.025
-0.89
-1.05
-0.474
-0.013
-0.003

Dear colleague, could you send me abundance fitness for each of the items below? Thanks.
1. E42P
2. S27P
3. S59Q
4. E32W
5. V10L
6. E48S

-0.037
-0.232
-0.014
-0.131
-0.036
-0.043

Provide the reported abundance fitness of each entry below, same order.
1. F17C
2. G20T
3. E7K
4. I70M
5. D12G
6. T54W
7. R65E
8. A40P

[-0.074, -0.228, -0.01, -0.013, -0.095, -0.269, 0.013, -0.024]

Give abundance fitness for each of the items listed below.
1. N76P
2. K36L

1. 0.007
2. -0.057
